// reported z-score per item
- method.description: supercomplex reporter luminescence per Hoechst cell count – Hoechst nuclei count (AID 1645838);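 also: control cybrid cells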;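 as to z-score: higher means more mitochondrial supercomplex formation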
- protocol.conditions: Cells, luminescence/Hoechst cell count ratio, stronger effect = higher value
Screen size: about 2,000 compounds; about 100 (5%) were called active. The sample as a whole holds a higher share of actives than the screen did.
Write no unit; give the number alone.

CCCCC[C@@H](O)/C=C/[C@H]1[C@H](O)CC(=O)[C@@H]1C/C=C\CCCC(=O)O    -0.0831
CCCCC[C@H](O)CC[C@@H]1[C@@H](CCCCCCC(=O)O)[C@@H](O)C[C@H]1O    -0.187
CCCCCCCC/C=C\CCCCCCCC(=O)N[C@@H](CO)C(=O)O    0.0618
CCCCC[C@H](O)/C=C/[C@H]1[C@H](O)CC(=O)[C@@H]1C/C=C\CCCC(=O)OCC(O)CO (some centres undefined)    0.364
COc1cc(C(=O)NS(=O)(=O)c2ccccc2C)ccc1Cc1cn(C)c2ccc(NC(=O)OC3CCCC3)cc12    -0.169
CCCCC[C@H](O)/C=C/[C@H]1C(=O)C[C@H](O)[C@@H]1C/C=C\CCCC(=O)OCC(O)CO (some centres undefined)    0.539

Task: Query (compound): CCCCCOc1ccccc1C(O)CC#CCCCC(=O)OC (centres undefined) ; field requested: z-score
Result: -0.738

Task: Query (compound): CCCCCCCCCCCCCCCCC(=O)NCCO ; field requested: z-score
Result: 0.812

Task: Query (compound): CCCCC[C@@](C)(O)/C=C/[C@@H]1[C@@H](C/C=C\CCCC(=O)OC)[C@@H](O)C[C@H]1O ; field requested: z-score
Result: -0.104

* * *

// reported z-score per item
- method.description: supercomplex reporter luminescence per Hoechst cell count – Hoechst nuclei count (AID 1645838);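 also: control cybrid cells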;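 as to z-score: higher means more mitochondrial supercomplex formation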
- protocol.conditions: Cells, luminescence/Hoechst cell count ratio, library stock concentration (final well concentration not given) 46 uM, stronger effect = higher value
Screen size: about 2,000 compounds; about 100 (5%) were called active. This excerpt belongs to a sample that is enriched for actives.
Write no unit; give the number alone.

Nc1ccccc1NC(=O)c1ccc(CNC(=O)OCc2cccnc2)cc1    -0.106
CC(C)c1ccccc1OC(=O)NCCc1ccc2ccccc2c1    -0.152
CC(C)CC(NC(=O)NC(CCC(=O)O)C(=O)O)C(=O)O (centres undefined)    -0.295

# context switch: different molecule, same z-score
Task: Query (molecule): CC(Sc1nc2ccccc2[nH]1)C(=O)NN=Cc1cc(Br)ccc1O (centres undefined) ; field requested: z-score
Result: -1.02

* * *

- method.description: supercomplex reporter luminescence per Hoechst cell count – Hoechst nuclei count (AID 1645838);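 also: control cybrid cells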
- protocol.conditions: Cells, luminescence/Hoechst cell count ratio, measured here: cell number, Hoechst nuclei count, library stock concentration (final well concentration not given) 2 mM
Among all 2,000 compounds or so, about 100 (5%) were called active. The entries come from a sample that favours actives as a whole.
value.kind: cell count
Write no unit; give the number alone.

Recorded results for 6 molecules are shown here.
Cn1cc(C=C2C(=O)Nc3cccnc32)c2ccccc21    5410
CCCNC(=O)C1OC1C(=O)N[C@@H](C(=O)N1CCCC1C(=O)O)C(C)CC (stereo partly specified)    4760
COc1cc(Nc2ncc(F)c(Nc3ccc4c(n3)NC(=O)C(C)(C)O4)n2)cc(OC)c1OC    3800
COc1cc2ncnc(Nc3cc(Br)c(O)c(Br)c3)c2cc1OC    5420
COc1cc2ncnc(Nc3ccc(F)c(Cl)c3)c2cc1OCCCN1CCOCC1    5790
CC(C)(C)C(O)C=Cc1ccc2c(c1)OCO2 (stereo unspecified)    5050

# context switch: different molecule, same cell count
Task: Query (molecule): COc1ccc(C(=O)C(=O)c2ccc(OC)cc2)cc1 ; field requested: cell count
Result: 5480

* * *

- method.description: supercomplex reporter luminescence per Hoechst cell count – Hoechst nuclei count (AID 1645838);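 also: control cybrid cells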
- protocol.conditions: Cells, luminescence/Hoechst cell count ratio, measured here: cell number, Hoechst nuclei count, library stock concentration (final well concentration not given) 1.67 mM
Hit rate of the full screen: of about 2,000 compounds, about 100 (5%) were called active. The full list was thinned out, with actives kept by preference.
value.kind: cell count
Write no unit; give the number alone.

CC=C(C)C(=O)OC1C(C)=C[C@]23C(=O)C(C=C(CO)C(O)[C@]12O)C1C(CC3C)C1(C)C (stereo not given in full)    6240

Task: Query (compound): CN(CC=CC#CC(C)(C)C)Cc1cccc2ccccc12 ; field requested: cell count
Result: 5350

Task: Query (compound): N#Cc1cccc(C#N)c1-c1nc2c3ccccc3c3cc(Cl)ccc3c2[nH]1 ; field requested: cell count
Result: 7350

Task: Query (compound): O=C(NC(=O)c1c(F)cccc1Cl)NC1c2ccccc2-c2ccccc21 ; field requested: cell count
Result: 6190

* * *

- method.description: supercomplex reporter luminescence per Hoechst cell count – Hoechst nuclei count (AID 1645838);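 also: control cybrid cells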
- protocol.conditions: Cells, luminescence/Hoechst cell count ratio, measured here: cell number, Hoechst nuclei count
In all, about 2,000 compounds went through this assay and about 100 (5%) were called active. Only a selection was taken, and actives are over-represented in it overall.
// reported cell count per item
Write no unit; give the number alone.

Task: Query (compound): CCCCC[C@H](O)/C=C/[C@@H]1[C@@H](C/C=C\CCCC(=O)N(CC)CC)[C@@H](O)C[C@H]1O ; field requested: cell count
Result: 5830

* * *

- method.description: supercomplex reporter luminescence per Hoechst cell count – Hoechst nuclei count (AID 1645838);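 also: control cybrid cells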;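 as to z-score: higher means more mitochondrial supercomplex formation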
- protocol.conditions: Cells, luminescence/Hoechst cell count ratio, library stock concentration (final well concentration not given) 46 uM, stronger effect = higher value
The whole screen tested about 2,000 compounds, of which about 100 (5%) were called active. The entries come from a sample that favours actives as a whole.
// reported z-score per item

Recorded results for 4 compounds are shown here.
COc1cc(Nc2ncc3c(n2)-c2ccc(Cl)cc2C(c2c(F)cccc2OC)=NC3)ccc1C(=O)O    -0.133 (inactive)
NS(=O)(=O)OCC1CC(n2ccc3c(NC4CCc5ccccc54)ncnc32)CC1O (stereo not given)    1.02 (inactive)
O=C(O)c1cc(O)c2ccccc2c1O    0.31 (inactive)
Cc1cnc(Nc2ccc(F)cc2Cl)nc1-c1c[nH]c(C(=O)NC(CO)c2cccc(Cl)c2)c1 (stereo not given)    -0.208 (inactive)

# context switch: different compound, same z-score
Task: Query (compound): COc1ccccc1Oc1ccc(N(Cc2cccnc2)S(=O)(=O)CC(F)(F)F)cc1 ; field requested: z-score
Result: 0.268 (inactive)

* * *

- method.description: supercomplex reporter luminescence per Hoechst cell count – Hoechst nuclei count (AID 1645838);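 also: control cybrid cells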
- protocol.conditions: Cells, luminescence/Hoechst cell count ratio, measured here: cell number, Hoechst nuclei count, library stock concentration (final well concentration not given) 278 uM
The campaign covered roughly 2,000 compounds. About 100 (5%) were called active. The list comes from a sample in which actives are over-represented; it also holds close analogues and randomly drawn compounds.
value.kind: cell count
Write no unit; give the number alone.

CCCCCCCCCCCCCCC(=O)NCCO    6410
CC(C=CC1=C(C)CCCC1(C)C)=CC=CC(C)=CC(=O)O    5150
Cc1ccc(C(=O)Nc2ccc(Oc3cc4cnn(C)c4cc3-c3cn[nH]c3)c(F)c2)c(=O)n1-c1ccc(F)cc1    6950
CS(=O)(=O)N1CCN(Cc2cc3nc(-c4cccc5[nH]ncc45)nc(N4CCOCC4)c3s2)CC1    4950
O=C1C(Cc2ccc(O)cc2)N2C(=O)CCN(C(=O)NCc3ccccc3)C2CN1Cc1cccc2ccccc12 (stereo not given)    7220

Task: Query (molecule): CC(C)c1ccccc1S(=O)(=O)c1cc(N)c2ncccc2c1[N+](=O)[O-] ; field requested: cell count
Result: 6010

Task: Query (molecule): CC(C)(C)CC1NC(C(=O)NC2CCC(O)CC2)C(c2cccc(Cl)c2F)[C@]12C(=O)Nc1cc(Cl)ccc12 (stereo not given in full) ; field requested: cell count
Result: 7430

Task: Query (molecule): O=c1cc(N2CCOCC2)oc2c1ccc1ccccc12 ; field requested: cell count
Result: 6310

Task: Query (molecule): CCOC(=O)C(N)Cc1ccc(-c2cc(OC(c3ccc(Cl)cc3-n3ccc(C)n3)C(F)(F)F)nc(N)n2)cc1 (stereo not given) ; field requested: cell count
Result: 6270

Task: Query (molecule): NC(=O)c1noc(C(CCCC2CCCCC2)CC(=O)NO)n1 (stereo not given) ; field requested: cell count
Result: 6380

* * *

- method.description: supercomplex reporter luminescence per Hoechst cell count – Hoechst nuclei count (AID 1645838);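 also: control cybrid cells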;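 as to z-score: higher means more mitochondrial supercomplex formation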
- protocol.conditions: Cells, luminescence/Hoechst cell count ratio, library stock concentration (final well concentration not given) 1.67 mM, stronger effect = higher value
Among all 2,000 compounds or so, about 100 (5%) were called active. Shown is part of a subset that was picked to be rich in actives.
Classification field: enter 1 (yes) for z-score values not below -0.09, 0 (no) for values below it.

COc1ccccc1Oc1ccc(N(Cc2cccnc2)S(=O)(=O)CC(F)(F)F)cc1    1 (yes)
CCCCCc1ccc(C=CC(=O)Nc2ccccc2C(=O)O)cc1    0 (no)
Cc1ccc(-c2nn(C(C)(C)C)c3ncnc(N)c23)cc1    1 (yes)
Nc1ccccc1NC(=O)c1ccc(CNC(=O)OCc2cccnc2)cc1    1 (yes)

Consider the additional compound presented here.
Task: Dear colleague, could you confirm whether CC(C=CC1=C(C)CCCC1(C)C)=CC=CC(C)=CC(=O)O has z-score at or above -0.09?
Result: 0 (no)

Entry source: PubChem BioAssay AID1645838
